Reference for the values: ChEMBL document CHEMBL5257132

# assay.notes: Kinetic solubility of compound in FeSSIF by LCMS analysis
# Assay type: ADME
# settings: read-out: Kinetic_solubility
endpoint.name: solubility kinetic (µM)
Answers are plain numbers, in µM.

Query: Any idea what its solubility kinetic is? The compound is Cc1csc([C@@]2(CN)[C@@H]3CN(c4cnc5c(-c6ccc7nn(C)cc7c6Cl)n[nH]c5n4)C[C@@H]32)n1
Response: 168

###

# assay.notes: Clearance in Sprague-Dawley rat plasma at 0.5 mg/kg, iv and measured upto 24 hrs by LC-MS/MS analysis
# Assay type: ADME, organism-based
endpoint.name: clearance (mL/min/kg)
One number for each entry, in mL/min/kg.

Query: // query clearance value for entry Cc1csc([C@@]2(CN)[C@@H]3CN(c4cnc5c(-c6ccc7nn(C)cc7c6Cl)n[nH]c5n4)C[C@@H]32)n1
Response: 16.2

###

Kindly supply the reported pIC50 values for the records listed here.
# target.system: Tyrosine-protein phosphatase non-receptor type 11 (Homo sapiens)
# Sequence (Q06124 whole entry): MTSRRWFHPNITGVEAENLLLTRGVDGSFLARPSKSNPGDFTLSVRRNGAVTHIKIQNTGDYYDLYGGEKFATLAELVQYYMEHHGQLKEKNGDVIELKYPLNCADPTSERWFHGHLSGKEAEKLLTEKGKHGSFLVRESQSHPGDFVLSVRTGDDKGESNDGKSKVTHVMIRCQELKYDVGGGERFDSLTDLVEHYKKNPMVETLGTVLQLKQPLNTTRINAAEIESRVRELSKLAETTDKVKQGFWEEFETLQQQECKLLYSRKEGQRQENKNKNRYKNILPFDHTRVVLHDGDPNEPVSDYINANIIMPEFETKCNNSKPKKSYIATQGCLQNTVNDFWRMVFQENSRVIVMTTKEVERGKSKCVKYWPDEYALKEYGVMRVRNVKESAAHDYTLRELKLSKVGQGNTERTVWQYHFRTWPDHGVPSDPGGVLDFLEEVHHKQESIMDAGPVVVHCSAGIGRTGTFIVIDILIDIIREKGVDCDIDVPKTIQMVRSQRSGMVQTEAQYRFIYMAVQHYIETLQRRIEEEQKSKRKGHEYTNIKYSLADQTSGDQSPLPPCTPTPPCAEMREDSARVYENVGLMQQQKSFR
# assay.notes: Allosteric inhibition of recombinant human SHP2 using IRS1 peptide and DiFMUP as substrate incubated for 30 mins followed by DiFMUP addition and measured after 30 mins by fluorescence based microplate reader analysis
Answers are plain numbers, as −log10 of the molar value.

Field: example entries. Status: answers known.
Query: Requested read-out pIC50, target or system Tyrosine-protein phosphatase non-receptor type 11 (Homo sapiens), entry Cn1cc2c(Cl)c(-c3n[nH]c4nc(N5C[C@@H]6[C@H](C5)[C@@]6(CN)c5nc(Cl)cs5)cnc34)ccc2n1
Response: 8.30

Query: Recorded pIC50 for Cc1csc([C@@]2(CN)[C@@H]3CCN(c4cnc5c(-c6ccn7nccc7c6Cl)n[nH]c5n4)C[C@@H]32)n1 with Tyrosine-protein phosphatase non-receptor type 11 (Homo sapiens), please?
Response: 8.52

Query: Return pIC50 measured with Tyrosine-protein phosphatase non-receptor type 11 (Homo sapiens) given this compound: Cc1nnc([C@@]2(CN)[C@@H]3CN(c4cnc5c(-c6ccc7nn(C)cc7c6Cl)n[nH]c5n4)C[C@@H]32)s1
Response: 8.00

Batch of 3 compounds: report pIC50 for each.
1. NC[C@]1(c2ccccn2)[C@@H]2CCN(c3cnc4c(-c5cccc(Cl)c5Cl)n[nH]c4n3)C[C@@H]21
2. NC[C@]1(c2ccccn2)[C@@H]2CCN(c3cnc(Sc4cccnc4C(F)(F)F)c(N)n3)C[C@@H]21
3. Cc1csc([C@]2(CN)[C@@H]3CCN(c4cnc5c(-c6cccc(Cl)c6Cl)n[nH]c5n4)C[C@@H]32)n1

Response:
1: 8.30; 2: 7.17; 3: 8.52

###

# target.system: UniProt Q12809
# Sequence (Q12809 whole entry): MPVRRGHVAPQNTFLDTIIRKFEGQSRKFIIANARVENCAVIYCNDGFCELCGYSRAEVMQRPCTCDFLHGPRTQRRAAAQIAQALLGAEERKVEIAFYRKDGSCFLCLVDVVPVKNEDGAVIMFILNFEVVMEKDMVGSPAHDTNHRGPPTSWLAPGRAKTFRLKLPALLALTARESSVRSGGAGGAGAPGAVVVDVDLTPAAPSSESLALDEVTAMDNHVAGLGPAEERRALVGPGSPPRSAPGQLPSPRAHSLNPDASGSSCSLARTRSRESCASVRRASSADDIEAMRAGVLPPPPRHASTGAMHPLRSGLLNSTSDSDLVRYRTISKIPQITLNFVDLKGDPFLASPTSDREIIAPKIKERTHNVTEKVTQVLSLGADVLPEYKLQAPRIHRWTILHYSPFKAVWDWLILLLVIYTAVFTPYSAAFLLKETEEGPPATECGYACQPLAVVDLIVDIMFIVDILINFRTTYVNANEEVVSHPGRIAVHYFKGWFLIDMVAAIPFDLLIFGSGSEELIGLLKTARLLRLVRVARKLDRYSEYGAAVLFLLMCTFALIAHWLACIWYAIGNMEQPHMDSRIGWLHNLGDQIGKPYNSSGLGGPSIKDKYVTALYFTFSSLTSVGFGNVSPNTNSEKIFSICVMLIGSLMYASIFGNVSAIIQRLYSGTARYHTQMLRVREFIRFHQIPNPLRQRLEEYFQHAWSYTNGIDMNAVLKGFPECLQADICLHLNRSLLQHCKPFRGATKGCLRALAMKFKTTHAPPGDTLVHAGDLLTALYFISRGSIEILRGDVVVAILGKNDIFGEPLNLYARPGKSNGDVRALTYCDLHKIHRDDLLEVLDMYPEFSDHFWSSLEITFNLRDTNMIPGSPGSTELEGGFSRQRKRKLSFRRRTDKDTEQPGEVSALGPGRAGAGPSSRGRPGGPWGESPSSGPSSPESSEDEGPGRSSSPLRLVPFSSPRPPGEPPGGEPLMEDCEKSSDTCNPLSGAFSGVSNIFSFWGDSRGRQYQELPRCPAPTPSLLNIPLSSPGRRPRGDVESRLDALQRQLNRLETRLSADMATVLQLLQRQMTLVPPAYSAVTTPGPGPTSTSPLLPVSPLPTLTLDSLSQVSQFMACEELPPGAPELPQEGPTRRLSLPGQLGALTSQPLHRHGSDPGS
endpoint.name: IC50 (µM)
Numbers only, in µM.

Examples from the recorded data:
Query: Look up IC50 with UniProt Q12809 for this molecule: Cc1cccc([C@@]2(CN)[C@@H]3CN(c4cnc5c(-c6ccc7nn(C)cc7c6Cl)n[nH]c5n4)C[C@@H]32)n1
Response: 5.87

Query: Test system UniProt Q12809; read-out IC50; what value for Cn1cc2c(Cl)c(-c3n[nH]c4nc(N5C[C@@H]6[C@H](C5)[C@@]6(CN)c5ccccc5)cnc34)ccc2n1 ?
Response: 5.35

Query: Please state recorded IC50 (tested on UniProt Q12809) of NC[C@]1(c2ccsc2)[C@@H]2CCN(c3cnc4c(-c5cccc(Cl)c5Cl)n[nH]c4n3)C[C@@H]21
Response: 0.109

Query: Item: Cn1cc2c(Cl)c(-c3n[nH]c4nc(N5C[C@@H]6[C@H](C5)[C@@]6(CN)c5ccccn5)cnc34)ccc2n1 Test system: UniProt Q12809 Read-out: IC50 Value: ?
Response: 8.96

Query: Notebook entry, UniProt Q12809 assay: IC50 of Cc1csc([C@]2(CN)[C@@H]3CCN(c4cnc5c(-c6cccc(Cl)c6Cl)n[nH]c5n4)C[C@@H]32)n1 = ?
Response: 0.058

Provide reported IC50 for each item, in the same order as listed.
1. Cc1csc([C@]2(CN)[C@@H]3CN(c4cnc5c(-c6cccc(Cl)c6Cl)n[nH]c5n4)CC[C@@H]32)n1
2. Cc1csc([C@@]2(CN)[C@@H]3CCN(c4cnc5c(-c6cccc(Cl)c6Cl)n[nH]c5n4)C[C@@H]32)n1 (racemic)
3. NC[C@]1(c2ccsc2)[C@@H]2CCN(c3cnc4c(-c5cccnc5C(F)(F)F)n[nH]c4n3)C[C@@H]21
4. Cc1csc([C@@]2(CN)[C@@H]3CCN(c4cnc5c(-c6cccnc6C(F)(F)F)n[nH]c5n4)C[C@@H]32)n1
5. NC[C@]1(c2ccccn2)[C@@H]2CCN(c3cnc4c(-c5cccc(Cl)c5Cl)n[nH]c4n3)C[C@@H]21
6. Cc1csc([C@@]2(CN)[C@@H]3CCN(c4cnc5c(-c6ccc7nc(C)sc7c6Cl)n[nH]c5n4)C[C@@H]32)n1
7. Cn1cc2c(Cl)c(-c3n[nH]c4nc(N5C[C@@H]6[C@H](C5)[C@@]6(CN)c5nc(Cl)cs5)cnc34)ccc2n1

Response:
1. 0.769
2. 0.25
3. 5.56
4. 5.06
5. 0.042
6. 0.024
7. 12.3

Record IC50 per entry; entries follow.
1. Cc1csc([C@@]2(CN)[C@@H]3CN(c4cnc5c(-c6ccn7nccc7c6Cl)n[nH]c5n4)C[C@@H]32)n1
2. Cn1cc2c(Cl)c(-c3n[nH]c4nc(N5C[C@@H]6[C@H](C5)[C@@]6(CN)c5nccs5)cnc34)ccc2n1
3. Cc1csc([C@@]2(CN)[C@@H]3CCN(c4cnc5c(-c6ccn7nccc7c6Cl)n[nH]c5n4)C[C@@H]32)n1
4. Cc1nc(N2CCC3(CC2)CO[C@@H](C)[C@H]3N)c(CO)nc1-c1cccc(Cl)c1Cl

Response:
0.235
13.5
0.012
3.35

// each listed molecule needs a value for IC50
1. Cc1csc([C@@]2(CN)[C@@H]3CCN(c4cnc5c(-c6ccc7nn(C)cc7c6Cl)n[nH]c5n4)C[C@@H]32)n1
2. NC[C@]1(c2ccccc2)[C@@H]2CCN(c3cnc4c(-c5cccc(Cl)c5Cl)n[nH]c4n3)C[C@@H]21
3. Cc1csc([C@@]2(CN)[C@@H]3CN(c4cnc5c(-c6ccc7nc(C)sc7c6Cl)n[nH]c5n4)C[C@@H]32)n1

Response:
1. 0.107
2. 0.389
3. 1.66

###

# assay.notes: Inhibition of ERK phosphorylation in human KYSE520 cells incubated for 2 hrs by TR-FRET assay
# Type: cell-based
# settings: KYSE-520, 2 h
For each record, check the reported IC50: if it is below 70 nM write y, else write n.

Previously resolved entries follow.
Query: Determine whether this compound shows IC50 lower than 70 nM (ties excluded): Cc1nc([C@@]2(CN)[C@@H]3CN(c4cnc5c(-c6ccc7nn(C)cc7c6Cl)n[nH]c5n4)C[C@@H]32)cs1
Response: n

Query: # TODO verify IC50 < 70 nM strictly for this compound: Cc1csc([C@@]2(CN)[C@@H]3CN(c4cnc5c(-c6ccc7nn(C)cc7c6Cl)n[nH]c5n4)C[C@@H]32)n1
Response: y

New cases:
Query: I wonder whether Cn1cc2c(Cl)c(-c3n[nH]c4nc(N5C[C@@H]6[C@H](C5)[C@@]6(CN)c5cnsn5)cnc34)ccc2n1 has IC50 below 70 nM. Can you tell?
Response: y

Query: Consider the compound Cc1csc([C@@]2(CN)[C@@H]3CN(c4cnc5c(-c6ccc7nc(C)sc7c6Cl)n[nH]c5n4)C[C@@H]32)n1 . Is its IC50 strictly less than 70 nM?
Response: y

Query: Bench note: check whether Cn1ccc([C@@]2(CN)[C@@H]3CN(c4cnc5c(-c6ccc7nn(C)cc7c6Cl)n[nH]c5n4)C[C@@H]32)n1 shows IC50 below 70 nM
Response: n

Query: API: query returns whether the compound falls strictly under 70 nM in IC50. Query: Cc1csc([C@@]2(CN)[C@@H]3CCN(c4cnc5c(-c6ccn7nccc7c6Cl)n[nH]c5n4)C[C@@H]32)n1
Response: y
